// provenance: ChEMBL document CHEMBL5104138

Assay: Half life in mouse at 100 mg/kg, po
Format: ADME, organism-based
Details: in vivo
Readout type: half-life (h)
Answers are plain numbers, in h.

## Task May I ask what half-life has been recorded for `CNC(=O)N(c1ccc(S(=O)(=O)Nc2ncccn2)cn1)c1cc(F)c(-c2ccc(F)c(OC(F)(F)F)c2)cc1OC` ?
## Result 3.4

---

Experiment: Half life in rat at 10 mg/kg, po
Type: ADME, organism-based
Settings: in vivo
Readout type: half-life (h)
Answers are plain numbers, in h.

## Task Recorded half-life for `CNC(=O)N(c1ccc(S(=O)(=O)Nc2ncccn2)cn1)c1cc(F)c(-c2ccc(F)c(OC(F)(F)F)c2)cc1OC` , please?
## Result 4.6

---

Test: Passive permeability of compound
Format: ADME
Conditions: not told; read-out: permeability
Readout type: Papp (×10⁻⁶ cm/s)
Answers are plain numbers, in ×10⁻⁶ cm/s.

## Task Endpoint output: Papp of `CNC(=O)N(c1ccc(S(=O)(=O)Nc2ccon2)cc1)c1ccc(-c2ccc(Cl)c(C)c2)cc1OC` . Value?
## Result 1.5

---

Assay: half life in dog at 2 mg/kg, po
Format: ADME, organism-based, Canis lupus familiaris
Settings: in vivo
Readout type: half-life
Note to self: number, then unit, no commentary.

## Task Can you look up the measured half-life of `CNC(=O)N(c1ccc(S(=O)(=O)Nc2ncccn2)cn1)c1cc(F)c(-c2ccc(F)c(OC(F)(F)F)c2)cc1OC` for me?
## Result 18 h

---

Assay: Lipophilicity, logD of compound at pH 7.4
Assay type: physicochemical
Conditions: buffer
Threshold 1. logD below it: Yes. logD at it or above: No.

// below: answered compounds
>  <Substance smiles>
COc1cc(-c2ccc(Cl)c(C)c2)ccc1-n1c(=O)ccc2cc(S(=O)(=O)Nc3ccon3)ccc21

>  <Category label>
No

$$$$
>  <Substance smiles>
CNC(=O)N(c1ccc(S(=O)(=O)Nc2ncccn2)cn1)c1cc(F)c(-c2ccc(F)c(C(F)(F)F)c2)cc1OC

>  <Category label>
No

$$$$
>  <Substance smiles>
CNC(=O)N(c1ccc(S(=O)(=O)Nc2ccon2)cn1)c1cc(Cl)c(-c2ccc(F)c(OCC(F)(F)F)c2)cc1OC

>  <Category label>
Yes

$$$$

## Task Regarding `CNC(=O)N(c1ccc(S(=O)(=O)Nc2ncccn2)cn1)c1cc(F)c(-c2ccc(F)c(OC(F)(F)F)c2)cc1OC` , kindly confirm whether its logD is beneath 1.
## Result No

## Task Now this one: `CNC(=O)N(c1ccc(S(=O)(=O)Nc2ccon2)cn1)c1cc(Cl)c(-c2cc(F)c(F)c(F)c2)cc1OC`
## Result Yes

## Task Let us now turn to `CNC(=O)N(c1ccc(S(=O)(=O)Nc2ncccn2)cn1)c1cc(Cl)c(-c2ccc(F)c(OC(F)(F)F)c2)cc1OC`
## Result No

## Task One more compound: `CNC(=O)N(c1ccc(S(=O)(=O)Nc2ccon2)cn1)c1ccc(-c2ccc(Cl)c(C)c2)cc1OC`
## Result Yes

## Task Queued: `CNC(=O)N(c1ccc(S(=O)(=O)Nc2cccnn2)cn1)c1cc(F)c(-c2ccc(F)c(OC(F)(F)F)c2)cc1OC`
## Result No

---

Experiment: Clearance in dog at 0.25 mg/kg, iv
Assay type: ADME, organism-based, Canis lupus familiaris
Details: in vivo
Readout type: clearance (mL/min/kg)
Numbers only, in mL/min/kg.

## Task Quick one: clearance for `CNC(=O)N(c1ccc(S(=O)(=O)Nc2ncccn2)cn1)c1cc(F)c(-c2ccc(F)c(OC(F)(F)F)c2)cc1OC` ?
## Result 0.25

---

Assay: Permeability in MDCK cells
Assay type: ADME, cell-based, Canis lupus familiaris
Details: dog, read-out: permeability
Readout type: Papp (×10⁻⁶ cm/s)
Answers are plain numbers, in ×10⁻⁶ cm/s.

## Task For `CNC(=O)N(c1ccc(S(=O)(=O)Nc2ncccn2)cn1)c1cc(F)c(-c2ccc(F)c(OC(F)(F)F)c2)cc1OC` , what is its reported Papp?
## Result 18

---

Experiment: Intrinsic clearance in rat liver microsomes assessed as loss of parent compound incubated for 30 mins
Format: ADME, Microsome
Conditions: read-out: CLH
Readout type: microsomal CLint (µL/min/mg)
Give bare numbers, in µL/min/mg.

>  <Substance smiles>
CNC(=O)N(c1ccc(S(=O)(=O)Nc2ccon2)cn1)c1ccc(-c2ccc(Cl)c(C)c2)cc1OC

>  <microsomal CLint (µL/min/mg)>
29

$$$$

Now for a further molecule.
## Task Please report the recorded microsomal CLint for `COc1cc(-c2ccc(Cl)c(C)c2)ccc1-n1c(=O)ccc2cc(S(=O)(=O)Nc3ccon3)ccc21` .
## Result 28

---

Target: Sodium channel protein type 5 subunit alpha (Homo sapiens)
Sequence (Q14524 whole entry): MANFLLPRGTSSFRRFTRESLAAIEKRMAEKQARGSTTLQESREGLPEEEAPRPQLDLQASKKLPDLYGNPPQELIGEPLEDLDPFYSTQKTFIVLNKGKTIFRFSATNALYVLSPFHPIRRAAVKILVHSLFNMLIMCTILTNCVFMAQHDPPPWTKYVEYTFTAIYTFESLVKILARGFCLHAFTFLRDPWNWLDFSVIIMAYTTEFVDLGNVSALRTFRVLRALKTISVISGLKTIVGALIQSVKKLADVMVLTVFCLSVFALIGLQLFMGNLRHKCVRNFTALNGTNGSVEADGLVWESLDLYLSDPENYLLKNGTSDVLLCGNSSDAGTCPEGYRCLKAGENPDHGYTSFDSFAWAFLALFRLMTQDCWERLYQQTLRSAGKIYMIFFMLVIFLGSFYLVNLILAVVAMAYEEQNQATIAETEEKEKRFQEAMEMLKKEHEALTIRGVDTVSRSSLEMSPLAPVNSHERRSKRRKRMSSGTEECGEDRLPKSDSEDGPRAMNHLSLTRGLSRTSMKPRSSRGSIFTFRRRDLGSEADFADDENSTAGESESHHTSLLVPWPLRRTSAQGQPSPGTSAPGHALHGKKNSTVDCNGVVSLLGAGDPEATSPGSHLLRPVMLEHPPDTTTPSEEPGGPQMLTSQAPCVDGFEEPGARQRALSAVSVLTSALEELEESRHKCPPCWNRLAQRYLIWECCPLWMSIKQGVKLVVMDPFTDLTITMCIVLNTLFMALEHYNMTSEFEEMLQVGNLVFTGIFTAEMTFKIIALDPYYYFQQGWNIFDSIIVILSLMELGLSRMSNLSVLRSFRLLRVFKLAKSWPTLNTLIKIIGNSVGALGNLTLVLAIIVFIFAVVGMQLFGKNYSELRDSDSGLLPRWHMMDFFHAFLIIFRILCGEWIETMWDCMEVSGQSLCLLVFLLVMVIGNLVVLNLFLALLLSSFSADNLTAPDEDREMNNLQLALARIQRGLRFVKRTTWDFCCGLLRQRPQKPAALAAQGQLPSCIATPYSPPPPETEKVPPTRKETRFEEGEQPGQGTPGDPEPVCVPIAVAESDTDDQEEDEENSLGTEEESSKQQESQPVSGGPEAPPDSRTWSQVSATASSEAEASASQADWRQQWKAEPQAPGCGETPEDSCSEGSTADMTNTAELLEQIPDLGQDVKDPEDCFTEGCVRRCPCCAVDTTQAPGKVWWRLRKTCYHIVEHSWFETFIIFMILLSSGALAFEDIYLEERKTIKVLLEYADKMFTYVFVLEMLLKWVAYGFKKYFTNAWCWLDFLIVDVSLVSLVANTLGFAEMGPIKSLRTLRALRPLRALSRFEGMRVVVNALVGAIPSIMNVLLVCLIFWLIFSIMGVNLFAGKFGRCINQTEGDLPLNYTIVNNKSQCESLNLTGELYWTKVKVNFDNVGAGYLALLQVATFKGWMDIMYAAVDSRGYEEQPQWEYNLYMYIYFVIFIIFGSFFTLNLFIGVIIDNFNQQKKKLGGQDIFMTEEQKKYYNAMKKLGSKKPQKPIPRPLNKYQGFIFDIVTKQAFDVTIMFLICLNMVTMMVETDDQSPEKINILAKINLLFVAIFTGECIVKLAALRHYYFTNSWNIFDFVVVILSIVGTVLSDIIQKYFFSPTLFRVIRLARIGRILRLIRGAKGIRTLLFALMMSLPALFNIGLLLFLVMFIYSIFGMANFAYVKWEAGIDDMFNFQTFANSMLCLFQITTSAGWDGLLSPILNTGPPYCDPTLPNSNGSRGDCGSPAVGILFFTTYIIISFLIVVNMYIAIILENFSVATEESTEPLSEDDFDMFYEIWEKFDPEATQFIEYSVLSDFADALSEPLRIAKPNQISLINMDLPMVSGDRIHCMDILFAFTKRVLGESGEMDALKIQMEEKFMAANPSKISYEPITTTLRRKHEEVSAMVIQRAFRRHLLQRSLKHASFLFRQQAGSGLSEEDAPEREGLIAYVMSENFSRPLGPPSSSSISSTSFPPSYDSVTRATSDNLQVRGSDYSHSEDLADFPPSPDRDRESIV
Experiment: Inhibition of human Nav1.5 at -50 mV holding potential by PatchXpress assay
Readout type: IC50 (µM)
Answers are plain numbers, in µM.

## Task What IC50 appears in the records for this compound with Sodium channel protein type 5 subunit alpha (Homo sapiens)? `CNC(=O)N(c1ccc(S(=O)(=O)Nc2ncccn2)cn1)c1cc(F)c(-c2ccc(F)c(OC(F)(F)F)c2)cc1OC`
## Result 40

---

Target: UniProtKB P11712
Sequence (P11712 whole entry): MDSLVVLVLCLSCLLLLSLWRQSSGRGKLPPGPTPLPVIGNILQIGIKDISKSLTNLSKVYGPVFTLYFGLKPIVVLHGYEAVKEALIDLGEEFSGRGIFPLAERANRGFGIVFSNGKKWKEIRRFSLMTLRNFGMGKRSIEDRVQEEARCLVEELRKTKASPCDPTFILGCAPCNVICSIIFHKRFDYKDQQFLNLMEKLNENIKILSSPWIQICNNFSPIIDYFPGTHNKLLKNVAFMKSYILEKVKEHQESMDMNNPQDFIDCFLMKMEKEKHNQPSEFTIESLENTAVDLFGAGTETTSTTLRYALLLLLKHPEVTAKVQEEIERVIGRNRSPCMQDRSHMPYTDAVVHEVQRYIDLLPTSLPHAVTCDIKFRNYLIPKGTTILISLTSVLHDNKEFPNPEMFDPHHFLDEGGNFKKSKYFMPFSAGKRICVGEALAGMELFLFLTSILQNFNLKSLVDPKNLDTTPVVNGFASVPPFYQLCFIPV
Assay: Inhibition of CYP2C9 (unknown origin) using diclofenac as substrate
Type: ADME
Readout type: IC50 (µM)
Answers are plain numbers, in µM.

## Task For `CNC(=O)N(c1ccc(S(=O)(=O)Nc2ccon2)cn1)c1ccc(-c2ccc(Cl)c(C)c2)cc1OC` , what is its reported IC50?
## Result 3.3

---

Assay: AUC in rat at 10 mg/kg, po
Type: ADME, organism-based
Parameters: dose 10 mg/kg, route po
Conditions: in vivo
Readout type: AUC (µM·h)
Answers are plain numbers, in µM·h.

## Task Please look up its AUC: `CNC(=O)N(c1ccc(S(=O)(=O)Nc2ncccn2)cn1)c1cc(F)c(-c2ccc(F)c(OC(F)(F)F)c2)cc1OC`
## Result 212

---

Target: Cytochrome P450 3A4 (Homo sapiens)
Sequence (P08684 whole entry): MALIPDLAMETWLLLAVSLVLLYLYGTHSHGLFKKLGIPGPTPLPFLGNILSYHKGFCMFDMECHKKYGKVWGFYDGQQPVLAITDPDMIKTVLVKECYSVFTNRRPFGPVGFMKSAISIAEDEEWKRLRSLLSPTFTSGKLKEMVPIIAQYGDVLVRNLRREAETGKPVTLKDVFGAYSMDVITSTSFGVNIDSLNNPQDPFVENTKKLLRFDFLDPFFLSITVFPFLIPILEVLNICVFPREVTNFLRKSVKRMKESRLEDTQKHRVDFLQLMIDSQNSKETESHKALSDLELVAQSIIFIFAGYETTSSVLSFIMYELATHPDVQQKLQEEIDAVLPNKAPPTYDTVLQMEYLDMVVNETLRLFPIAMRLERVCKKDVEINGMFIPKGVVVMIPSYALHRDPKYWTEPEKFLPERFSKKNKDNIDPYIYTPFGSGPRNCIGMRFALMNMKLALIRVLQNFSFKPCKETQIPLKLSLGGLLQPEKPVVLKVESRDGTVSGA
Experiment: Time dependent inhibition of CYP3A4 in human liver microsomes using midazolam as substrate incubated for 30 mins
Assay type: ADME, Microsome
Readout type: IC50

Worked examples, 5 molecules total:
>  <Substance smiles>
CNC(=O)N(c1ccc(S(=O)(=O)Nc2ccon2)cn1)c1cc(Cl)c(-c2cc(OC)cc(C(F)(F)F)c2)cc1OC

>  <IC50>
17 µM

$$$$
>  <Substance smiles>
CNC(=O)N(c1ccc(S(=O)(=O)Nc2ncccn2)cn1)c1cc(F)c(-c2ccc(F)c(C(F)(F)F)c2)cc1OC

>  <IC50>
> 50 µM

$$$$
>  <Substance smiles>
CNC(=O)N(c1ccc(S(=O)(=O)Nc2ccon2)cn1)c1cc(Cl)c(-c2cccc(C(F)(F)F)c2)cc1OC

>  <IC50>
5 µM

$$$$
>  <Substance smiles>
CNC(=O)N(c1ccc(S(=O)(=O)Nc2ccon2)cn1)c1cc(F)c(-c2ccc(F)c(OC(F)(F)F)c2)cc1OC

>  <IC50>
> 50 µM

$$$$
>  <Substance smiles>
CNC(=O)N(c1ccc(S(=O)(=O)Nc2ccon2)cn1)c1cc(Cl)c(-c2cccc(OCC(F)(F)F)c2)cc1OC

>  <IC50>
35 µM

$$$$

Give one value of IC50 per listed molecule.
1. CNC(=O)N(c1ccc(S(=O)(=O)Nc2ccon2)cn1)c1cc(Cl)c(-c2ccc(F)c(C(F)(F)F)c2)cc1OC
2. CNC(=O)N(c1ccc(S(=O)(=O)Nc2ncccn2)cn1)c1cc(F)c(-c2cccc(C(F)(F)F)c2)cc1OC

## Result
["12 µM", "> 50 µM"]

---

Target: Sodium channel protein type 9 subunit alpha (Homo sapiens)
Sequence (Q15858 whole entry): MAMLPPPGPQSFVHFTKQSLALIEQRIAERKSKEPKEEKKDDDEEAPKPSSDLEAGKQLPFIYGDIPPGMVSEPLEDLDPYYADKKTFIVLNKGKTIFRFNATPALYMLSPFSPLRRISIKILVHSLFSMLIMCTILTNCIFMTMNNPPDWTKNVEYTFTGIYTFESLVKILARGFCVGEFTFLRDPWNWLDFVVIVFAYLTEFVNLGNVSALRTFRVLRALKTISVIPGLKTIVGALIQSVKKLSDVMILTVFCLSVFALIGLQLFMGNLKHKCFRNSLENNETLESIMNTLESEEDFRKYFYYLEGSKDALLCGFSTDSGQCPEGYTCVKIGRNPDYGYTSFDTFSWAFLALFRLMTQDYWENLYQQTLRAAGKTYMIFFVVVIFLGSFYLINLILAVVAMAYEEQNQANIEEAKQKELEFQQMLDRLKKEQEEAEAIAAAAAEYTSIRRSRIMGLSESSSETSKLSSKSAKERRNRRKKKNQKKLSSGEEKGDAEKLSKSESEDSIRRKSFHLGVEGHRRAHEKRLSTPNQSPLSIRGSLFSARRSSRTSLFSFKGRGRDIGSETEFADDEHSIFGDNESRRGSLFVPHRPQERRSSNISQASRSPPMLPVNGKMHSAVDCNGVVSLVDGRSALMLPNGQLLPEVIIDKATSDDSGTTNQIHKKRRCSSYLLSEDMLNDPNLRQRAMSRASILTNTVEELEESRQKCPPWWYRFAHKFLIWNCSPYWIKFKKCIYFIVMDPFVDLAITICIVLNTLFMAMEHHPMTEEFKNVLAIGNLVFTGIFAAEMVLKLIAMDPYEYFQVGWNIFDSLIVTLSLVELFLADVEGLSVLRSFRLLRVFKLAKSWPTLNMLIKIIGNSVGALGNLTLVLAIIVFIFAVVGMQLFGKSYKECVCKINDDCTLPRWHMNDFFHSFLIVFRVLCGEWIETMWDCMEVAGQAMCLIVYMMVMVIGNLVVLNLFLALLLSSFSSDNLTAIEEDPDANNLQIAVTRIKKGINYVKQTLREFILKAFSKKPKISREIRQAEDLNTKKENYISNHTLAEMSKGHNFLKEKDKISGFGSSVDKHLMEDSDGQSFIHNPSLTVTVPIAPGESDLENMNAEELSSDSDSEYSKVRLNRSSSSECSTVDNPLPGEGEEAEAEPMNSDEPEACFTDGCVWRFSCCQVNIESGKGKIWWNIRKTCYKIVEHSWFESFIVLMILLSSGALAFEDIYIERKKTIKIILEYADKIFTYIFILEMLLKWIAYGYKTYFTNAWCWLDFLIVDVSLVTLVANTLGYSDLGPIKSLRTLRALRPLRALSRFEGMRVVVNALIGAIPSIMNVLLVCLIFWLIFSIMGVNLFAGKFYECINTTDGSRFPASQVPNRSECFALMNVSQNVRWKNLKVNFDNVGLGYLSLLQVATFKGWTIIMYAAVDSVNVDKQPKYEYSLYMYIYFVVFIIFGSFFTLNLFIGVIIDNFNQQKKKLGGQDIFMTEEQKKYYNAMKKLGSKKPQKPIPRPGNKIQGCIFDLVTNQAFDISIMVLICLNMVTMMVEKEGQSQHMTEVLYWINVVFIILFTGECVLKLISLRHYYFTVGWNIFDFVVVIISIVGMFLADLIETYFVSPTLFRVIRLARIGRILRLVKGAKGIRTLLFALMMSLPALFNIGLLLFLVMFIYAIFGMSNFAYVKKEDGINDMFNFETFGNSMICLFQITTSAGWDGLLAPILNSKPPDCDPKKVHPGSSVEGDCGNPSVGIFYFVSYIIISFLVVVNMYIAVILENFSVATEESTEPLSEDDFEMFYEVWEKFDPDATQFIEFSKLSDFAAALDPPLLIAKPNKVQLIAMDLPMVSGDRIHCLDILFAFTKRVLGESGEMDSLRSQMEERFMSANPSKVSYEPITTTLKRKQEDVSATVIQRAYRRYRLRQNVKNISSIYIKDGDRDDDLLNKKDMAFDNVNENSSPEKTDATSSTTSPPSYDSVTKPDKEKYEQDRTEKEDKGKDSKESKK
Assay: Inhibition of human Nav1.7 by PatchXpress assay
Provide the recorded IC50 for the entries that follow.
Numbers only, in nM.

>  <Substance smiles>
CNC(=O)N(c1ccc(S(=O)(=O)Nc2ccon2)cn1)c1ccc(-c2ccc(Cl)c(C)c2)cc1OC

>  <IC50, nM>
87

$$$$
>  <Substance smiles>
CNC(=O)N(c1ccc(S(=O)(=O)Nc2ccon2)cn1)c1cc(Cl)c(-c2ccc(F)c(OCC(F)(F)F)c2)cc1OC

>  <IC50, nM>
23

$$$$
>  <Substance smiles>
COc1cc(-c2ccc(Cl)c(C)c2)ccc1N(C(C)=O)c1ccc(S(=O)(=O)Nc2ccon2)cn1

>  <IC50, nM>
2910

$$$$
>  <Substance smiles>
CNC(=O)N(c1ccc(S(=O)(=O)Nc2ccon2)cc1)c1ccc(-c2ccc(Cl)c(C)c2)cc1OC

>  <IC50, nM>
3800

$$$$

I have 2 compounds here; please give me IC50 for each one.
1. CNC(=O)N(c1ccc(S(=O)(=O)Nc2ccon2)cn1)c1cc(Cl)c(-c2cccc(C(F)(F)F)c2)cc1OC
2. COc1cc(-c2cccc(C(F)(F)F)c2)c(Cl)cc1N(C(N)=O)c1ccc(S(=O)(=O)Nc2ccon2)cn1

## Result
1. 17
2. 8
